5-hydroxytryptamine receptor 7 (Homo sapiens, UniProt P34969) data, read-out Ki
Sequence (P34969 whole entry): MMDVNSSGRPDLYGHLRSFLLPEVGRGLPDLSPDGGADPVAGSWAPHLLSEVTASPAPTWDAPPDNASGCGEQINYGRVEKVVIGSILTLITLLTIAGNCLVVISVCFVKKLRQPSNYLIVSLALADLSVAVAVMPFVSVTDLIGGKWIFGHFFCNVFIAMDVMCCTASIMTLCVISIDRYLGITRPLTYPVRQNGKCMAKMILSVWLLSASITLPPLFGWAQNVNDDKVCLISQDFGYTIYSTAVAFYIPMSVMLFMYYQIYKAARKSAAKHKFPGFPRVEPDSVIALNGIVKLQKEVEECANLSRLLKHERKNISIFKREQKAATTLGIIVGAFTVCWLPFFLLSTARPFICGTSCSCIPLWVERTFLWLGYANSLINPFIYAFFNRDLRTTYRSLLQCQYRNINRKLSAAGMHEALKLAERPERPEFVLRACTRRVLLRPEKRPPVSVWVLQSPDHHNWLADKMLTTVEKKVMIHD
Enter your answer as a number in nM; do not include the unit.

O=S(=O)(c1cccc2ncccc12)N1CCC(CCN2CCN(c3ccc(Cl)c(Cl)c3)CC2)CC1
52
O=S(=O)(c1cncc2ccccc12)N1CCC(CCN2CCN(c3ccc(Cl)c(Cl)c3)CC2)CC1
36
O=S(=O)(c1cncc2ccccc12)N1CCC(CCN2CCN(c3cccc(C(F)(F)F)c3)CC2)CC1
52
O=S(=O)(c1cncc2ccccc12)N1CCC(CCN2CCN(c3ccccc3)CC2)CC1
174
O=S(=O)(c1cccc2ncccc12)N1CCC(CCN2CCN(c3cccc(Cl)c3Cl)CC2)CC1
55

Next:
In: // map `O=S(=O)(c1cccc2ncccc12)N1CCC(CCN2CCN(c3cccc(F)c3)CC2)CC1` to recorded Ki (system: 5-hydroxytryptamine receptor 7 (Homo sapiens, UniProt P34969))
Out: 165
